The origin of these recorded values is patent US8431596B2.

Target: AXL (human catalytic domain) (Homo sapiens, UniProt P30530)
Construct: purchased Upstate Ltd. 14-512
Sequence (P30530 473-894): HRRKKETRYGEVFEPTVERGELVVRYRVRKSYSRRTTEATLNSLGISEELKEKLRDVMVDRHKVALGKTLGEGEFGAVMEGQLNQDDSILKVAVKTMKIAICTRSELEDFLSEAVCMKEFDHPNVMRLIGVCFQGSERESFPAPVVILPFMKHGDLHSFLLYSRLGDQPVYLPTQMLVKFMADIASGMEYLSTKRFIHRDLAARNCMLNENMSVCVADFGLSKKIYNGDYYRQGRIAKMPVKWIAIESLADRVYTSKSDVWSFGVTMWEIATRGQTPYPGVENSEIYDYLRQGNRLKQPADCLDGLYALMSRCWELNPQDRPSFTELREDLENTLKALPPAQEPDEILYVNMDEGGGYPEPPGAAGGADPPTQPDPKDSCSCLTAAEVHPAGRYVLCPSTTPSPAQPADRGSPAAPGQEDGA
Assay: AXL (human catalytic domain) Enzyme Activity Assay (IMAP fluorescence polarisation)
Assay type: biochemical
Details: further data set (WW-001 through WW-169, XX-001 through XX-469, YY-001 through YY-016, ZZ-001 through ZZ-003); 150 μM ATP
Exercise: state measured IC50 for each of the compounds provided.

Find the measured IC50 of Fc1ccc(CNc2cccc(-c3cccc4nc(Nc5ccc(OCCN6CCCC6)cc5)nn34)c2)nc1 and report it.
100 to 1000 nM

Find the measured IC50 of c1cc(-c2ccc(-c3ccsc3)cc2)n2nc(Nc3ccc(OCCN4CCCC4)cc3)nc2c1 and report it.
100 to 1000 nM

Find the measured IC50 of O=C(Nc1nc2cccc(-c3cccc(C(F)(F)F)c3)n2n1)C1CC1 and report it.
1000 to 10000 nM

Find the measured IC50 of COc1ccc(-c2cccc3nc(Nc4ccc(OCCN)cc4)nn23)cc1 and report it.
≤ 100 nM

Find the measured IC50 of Cn1cc(-c2cccc3nc(NC(=O)C4CC4)nn23)cn1 and report it.
100 to 1000 nM

Find the measured IC50 of O=C(Nc1nc2cccc(-c3ccnc(F)c3)n2n1)C1CC1 and report it.
1000 to 10000 nM

Find the measured IC50 of c1ccc(Oc2ccc(-c3cccc4nc(Nc5ccc(OCCN6CCCC6)cc5)nn34)cc2)cc1 and report it.
100 to 1000 nM

Find the measured IC50 of CNCCOc1ccc(Nc2nc3cccc(-c4ccc(OC)cc4)n3n2)cc1 and report it.
100 to 1000 nM

Find the measured IC50 of Clc1ccc(COc2cccc(-c3cccc4nc(Nc5ccc(OCCN6CCCC6)cc5)nn34)c2)cc1 and report it.
1000 to 10000 nM

Find the measured IC50 of CCN(CC)CCNc1cccc(Nc2nc3cccc(-c4ccc5c(c4)OCCO5)n3n2)c1 and report it.
100 to 1000 nM

Find the measured IC50 of CC[C@@H](COc1ccc(Nc2nc3cccc(-c4ccc(OC)cc4)n3n2)cc1)N1CCCC1 and report it.
≤ 100 nM
